Reported koff is given for each of the following proteins.
- Measured on: the molecule itself
- Test protocol: SPR; OpenSPR (Nicoya), ligand protein (0.100 mg) amine-coupled to a Carboxy sensor chip; 1 M sodium caprate injected to disrupt preformed interactions and after each analyte; analyte 12.5-100 ug per 200 uL injection, triplicate; global fit, 1:1 Langmuir model, TraceDraw
Response body: numeric value in s⁻¹, unit text excluded.

Protein	Reported result
MBP-fused extracellular domain of human JAM4 (Gly34-Arg286) (domain or fragment, UniProt Q9NSI5 34-286, looked up, JAM4, human, extracellular domain, Gly34-Arg286 of Q9NSI5; No protease site between MBP and the target in the final design; Decamer by size exclusion; source: E. coli SHuffle T7 Express, purified (amylose resin, size exclusion chromatography); not shown: MBP, N-terminal, kept) GSGSGNEVIEGPQNARVLKGSQARFNCTVSQGWKLIMWALSDMVVLSVRPMEPIITNDRFTSQRYDQGGNFTSEMIIHNVEPSDSGNIRCSLQNSRLHGSAYLTVQVMGELFIPSVNLVVAENEPCEVTCLPSHWTRLPDISWELGLLVSHSSYYFVPEPSDLQSAVSILALTPQSNGTLTCVATWKSLKARKSATVNLTVIRCPQDTGGGINIPGVLSSLPSLGFSLPTWGKVGLGLAGTMLLTPTCTLTIR	2.04e-07

Noted for MBP-fused extracellular domain of human JAM-C (Gly30-Glu236) (domain or fragment, UniProt Q9BX67 30-236, looked up, JAM-C, human, extracellular domain, Gly30-Glu236 of Q9BX67; No protease site between MBP and the target in the final design; Tetramer by size exclusion; also called junctional adhesion molecule C; source: E. coli SHuffle T7 Express, purified (amylose resin, size exclusion chromatography); not shown: MBP, N-terminal, kept) GAVNLKSSNRTPVVQEFESVELSCIITDSQTSDPRIEWKKIQDEQTTYVFFDNKIQGDLAGRAEILGKTSLKIWNVTRRDSALYRCEVVARNDRKEIDEIVIELTVQVKPVTPVCRVPKAVPVGKMATLHCQESEGHPRPHYSWYRNDVPLPTDSRANPRFRNSSFHLNSETGTLVFTAVHKDDSGQYYCIASNDAGSARCEEQEME : its koff reads 2.26e-05

Noted for MBP-fused extracellular domain of human JAM-B (Gly28-Ser238) (domain or fragment, UniProt P57087 28-238, looked up, JAM-B, human, extracellular domain, Gly28-Ser238 of P57087; No protease site between MBP and the target in the final design; Octamer by size exclusion; also called junctional adhesion molecule B; source: E. coli SHuffle T7 Express, purified (amylose resin, size exclusion chromatography); not shown: MBP, N-terminal, kept) GFSAPKDQQVVTAVEYQEAILACKTPKKTVSSRLEWKKLGRSVSFVYYQQTLQGDFKNRAEMIDFNIRIKNVTRSDAGKYRCEVSAPSEQGQNLEEDTVTLEVLVAPAVPSCEVPSSALSGTVVELRCQDKEGNPAPEYTWFKDGIRLLENPRLGSQSTNSSYTMNTKTGTLQFNTVSKLDTGEYSCEARNSVGYRRCPGKRMQVDDLNIS : its koff reads 5.36e-05

Noted for MBP-fused extracellular domain of human JAM-A (Gly27-Arg228) (domain or fragment, UniProt Q9Y624 27-228, looked up, JAM-A, human, extracellular domain, Gly27-Arg228 of Q9Y624; No protease site between MBP and the target in the final design (pET28a-MBP, NdeI/XhoI); also called junctional adhesion molecule A; source: E. coli SHuffle T7 Express, purified (amylose resin, size exclusion chromatography); not shown: MBP, N-terminal, kept) GSVTVHSSEPEVRIPENNPVKLSCAYSGFSSPRVEWKFDQGDTTRLVCYNNKITASYEDRVTFLPTGITFKSVTREDTGTYTCMVSEEGGNSYGEVKVKLIVLVPPSKPTVNIPSSATIGNRAVLTCSEQDGSPPSEYTWFKDGIVMPTNPKSTRAFSNSSYVLNPTTGELVFDPLSASDTGEYSCEARNGYGTPMTSNAVR : its koff reads 0.000838
